System: CYP24A1
testName: CYP24A1 expression induction in HL-60 promyelocytic leukemia cells (real-time RT-PCR)
Assay type: cell-based
conditionNotes: Homo sapiens; HL-60 cells; typical study, FIG. 2A; read-out: EC50 for inducing CYP24A1 expression
Procedure: Some compounds were tested in HL-60 promyelocytic leukemia cells and a primary culture of human coronary artery smooth muscle cells (HCASMC) for CYP24A1 induction. It is well documented that CYP24A1 has a VDRE in its promoter region and is a specific target gene of VDR (Meyer et al., 2007, J Biol Chem 282: 22344-22352). […] Compounds also were tested in HCASMC for their effects in inducing VDR. […]
measuredQuantity: EC50 (nM)
Answer in nM, number only, no unit symbol.

Asked: For C=C1[C@H](O)CC(=C/C=C2\CCCC3(C)C2CCC3[C@@H](C)OC[C@H](C)C(C)(C)O)C[C@H]1O (stereo partly shown) [Vida-5] , what is its reported EC50?
Given back: 5.6
